System: purified human Hsp90
Test: Binding Assay: fluorescence polarization with BODIPY-labeled geldanamycin
Conditions: 5 μM compound, BODIPY-GM 10 nM, Hsp90 30 nM
parameter-measured: % Inhibition at 5 μM Compound Concentration

>>> print(df.to_string())
                                    compound  reported_measurement
 0  CS(=O)(=O)NC(CCn1cnc(N)c2nc(Sc3cc4c(cc3Br)OCO4)nc1-2)C1CC1 (stereo not shown)                   49%
 1  COc1ccc(OC)c(Sc2nc3c(N)ncn(CC(c4ccccc4)C4CCCCC4)c-3n2)c1 (stereo not shown)                  >10%
 2  Nc1ncn(CCC2CCCN(S(=O)(=O)C(F)(F)F)C2)c2nc(Sc3cc4c(cc3Br)OCO4)nc1-2 (stereo not shown)                   14%
 3  COc1ccc(OC)c(Sc2nc3c(N)ncnc3n2CCC2(F)C(F)(F)C(F)(F)C(F)(F)C(F)(F)C2(F)F)c1                    1%
 4  COc1ccc(OC)c(Sc2nc3c(N)ncn(CCc4cccc(F)c4F)c-3n2)c1                    0%
 5  COc1cc(CCn2cnc(N)c3nc(Sc4cc(OC)ccc4OC)nc2-3)cc(OC)c1                    0%
 6  COc1ccc(OC)c(Sc2nc3c(N)ncnc3n2CCc2ccccc2C)c1                   69%
 7  CC(C)(C)OC(=O)Nc1ccc(CCn2cnc(N)c3nc(Sc4cc5c(cc4Br)OCO5)nc2-3)cc1                    4%
 8  COc1ccc(OC)c(Sc2nc3c(N)ncnc3n2CC(O)c2ccc(Cl)cc2Cl)c1 (stereo not shown)                    0%
 9  COc1ccc(OC)c(Sc2nc3c(N)ncn(CCc4ccc(N(C)C)cc4)c-3n2)c1                    0%
10  COc1cc(CCn2c(Sc3cc(OC)ccc3OC)nc3c(N)ncnc32)cc(OC)c1                   39%
11  COc1ccc(OC)c(Sc2nc3c(N)ncn(CCc4cc(C)ccc4C)c-3n2)c1                    0%
12  Cc1cc(C)c(CCn2cnc(N)c3nc(Sc4cc5c(cc4Br)OCO5)nc2-3)c(C)c1                    0%
13  CC(C)CN1CCCCC1CCn1cnc(N)c2nc(Sc3cc4c(cc3Br)OCO4)nc1-2 (stereo not shown)                   45%
14  CCCCNC(=O)Nc1ccc(CCn2cnc(N)c3nc(Sc4cc(OC)ccc4OC)nc2-3)cc1                  1.0%
15  Nc1ncn(CCC2CCN(C(=O)C3CC3(F)F)CC2)c2nc(Sc3cc4c(cc3Br)OCO4)nc1-2 (stereo not shown)                13.00%

====

Molecular target: purified human Hsp90
Experiment: Binding Assay: fluorescence polarization with BODIPY-labeled geldanamycin
Conditions: BODIPY-GM 10 nM, Hsp90 30 nM
pIC50: −log10 of the molar value.
Reported pIC50 values for a set of compounds
parameter-measured: pIC50

                                   compound  parameter_measured  comparison_symbol  reported_measurement
0  C[C@@H](NC(=O)OC(C)(C)C)C(=O)N1CCCC(CCn2c(Sc3cc4c(cc3Br)OCO4)nc3c(N)ncnc32)C1 (some centres unmarked)               pIC50                  =                  6.70
1  COc1ccc(OC)c(Sc2nc3c(N)ncn(CCN4CCN(C(C)=O)CC4)c-3n2)c1               pIC50                  =                  5.05
2  Nc1ncnc2c1nc(Sc1cc3c(cc1Br)OCO3)n2CCC(N)C1CCCCC1 (centres unmarked)               pIC50                  =                  6.54
3  CCOC(=O)N1CCCCC1CCn1c(Sc2cc(OC)ccc2OC)nc2c(N)ncnc21 (centres unmarked)               pIC50                  <                  5.10
4  Nc1ncnc2c1nc(Sc1cc3c(cc1Br)OCO3)n2CCC(N)C1CCSCC1 (centres unmarked)               pIC50                  =                  6.92
5  CC(C)(C)NC(=O)N1CCCC(CCn2c(Sc3cc4c(cc3Br)OCO4)nc3c(N)ncnc32)C1 (centres unmarked)               pIC50                  =                  6.41
6  COc1ccc(OC)c(Sc2nc3c(N)ncnc3n2CC(c2ccccc2)C2CCCC2)c1 (centres unmarked)               pIC50                  <                  6.00
7  Nc1ncnc2c1nc(Sc1cc3c(cc1Br)OCO3)n2CCC1CNC1               pIC50                  =                  6.74

====

Items are presented alongside their recorded % Inhibition at 5 μM Compound Concentration.
Test system: purified human Hsp90
Assay: Binding Assay: fluorescence polarization with BODIPY-labeled geldanamycin
Details: 5 μM compound, BODIPY-GM 10 nM, Hsp90 30 nM
parameter-measured: % Inhibition at 5 μM Compound Concentration (%)

                                    molecule  reported_measurement
 0  Nc1ncn(CCC2=CCN(Cc3ccccc3)CC2)c2nc(Sc3cc4c(cc3Br)OCO4)nc1-2                     6
 1  C=Cn1cnc(N)c2nc(Sc3cc4c(cc3Br)OCO4)nc1-2                    21
 2  Nc1ncn(CCc2cccc(F)c2)c2nc(Sc3cc4c(cc3Br)OCO4)nc1-2                    16
 3  COc1ccc(C2(Cn3cnc(N)c4nc(Sc5cc6c(cc5Br)OCO6)nc3-4)CC2)cc1                    30
 4  CC(C)N1CCC(CCn2c(Sc3cc4c(cc3Br)OCO4)nc3ncnc(N)c32)CC1                 55.00
 5  CC(C)NC(=O)N1CCCC(CCn2cnc(N)c3nc(Sc4cc5c(cc4Br)OCO5)nc2-3)C1 (stereo not drawn)                    45
 6  CCOc1cc(CCn2cnc(N)c3nc(Sc4cc(OC)ccc4OC)nc2-3)ccc1OC                     0
 7  COc1ccc(OC)c(Sc2nc3c(N)ncn(CCc4ccccc4[N+](=O)[O-])c-3n2)c1                     0
 8  Nc1ncn(CCc2ccccc2)c2nc(Sc3ccc4c(c3)OC(F)(F)O4)nc1-2                   0.0
 9  COc1ccc(OC)c(Sc2nc3c(N)ncn(Cc4ccc(F)cc4)c-3n2)c1                     0
10  Nc1ncn(CCc2ccccc2Br)c2nc(Sc3cc4c(cc3Br)OCO4)nc1-2                     0
11  COc1ccc(OC)c(Sc2nc3c(N)ncnc3n2CCc2ccc(F)cc2F)c1                    54
12  COc1ccc(OC)c(Sc2nc3c(N)ncn(CCC4CCCCC4)c-3n2)c1                     3
13  Nc1ncn(CCc2ccccc2Cl)c2nc(Sc3cc4c(cc3Br)OCO4)nc1-2                    13
14  Nc1ncn(CCc2ccc3ccccc3c2)c2nc(Sc3cc4c(cc3Br)OCO4)nc1-2                  21.0

====

System: purified human Hsp90
Assay: Binding Assay: fluorescence polarization with BODIPY-labeled geldanamycin
Settings: 5 μM compound, BODIPY-GM 10 nM, Hsp90 30 nM
Label satisfied when % Inhibition at 5 μM Compound Concentration >= 30%; otherwise not satisfied.

>>> print(df.to_string())
                                   molecule  category_label
0  Nc1ncn(CC(c2ccccc2)C2CCCC2)c2nc(Sc3cc4c(cc3Br)OCO4)nc1-2 (centres unmarked)       satisfied
1  Nc1ncn(CCc2ccc(O)cc2)c2nc(Sc3cc4c(cc3Br)OCO4)nc1-2   not satisfied
2  CC12CCC(CC(CCn3cnc(N)c4nc(Sc5cc6c(cc5Br)OCO6)nc3-4)C1)O2 (centres unmarked)   not satisfied
3  Nc1ncn(CCc2c(Cl)cccc2Cl)c2nc(Sc3cc4c(cc3Br)OCO4)nc1-2       satisfied
4  Nc1ncn(CCc2ccccc2Cl)c2nc(Sc3cc4c(cc3Br)OCCO4)nc1-2   not satisfied
5  N#CC1CCN(CCn2c(Sc3cc4c(cc3Br)OCO4)nc3ncnc(N)c32)CC1       satisfied
6  Nc1ncn(CCc2ccccc2)c2nc(Sc3ccc(Cl)cc3)nc1-2   not satisfied
7  COc1ccc(OC)c(Sc2nc3c(N)ncn(CCN4CCOCC4)c-3n2)c1   not satisfied
